study.target: Mcl-1 (Homo sapiens (Human))
Sequence (Q07820 172-327): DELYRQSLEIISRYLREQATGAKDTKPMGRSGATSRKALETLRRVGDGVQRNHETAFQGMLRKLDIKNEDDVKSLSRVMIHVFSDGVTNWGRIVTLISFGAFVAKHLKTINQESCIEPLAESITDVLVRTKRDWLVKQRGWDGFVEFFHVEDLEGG
test.details: TR-FRET binding assay, FITC-Bak peptide and MBP-tagged Mcl-1
particulars: read-out: Ki for Inhibition of Mcl-1 by TR-FRET assay
attribute.measured: Ki (nM)
The response must be a number in nM with no trailing unit.

input: Request the reported Ki associated with "COc1ccc(N2C[C@@H](C)n3c(c(CCCOc4cc(C)c(Cl)c(C)c4)c4ccc(Cl)c(-c5c(C)nn(C)c5C)c43)C2=O)c2c1c(C(=O)O)cn2Cc1cc(C)ccn1"
output: 0.26

Others:
input: Request the reported Ki associated with "COc1cc(N2C[C@@H](C)n3c(c(CCCOc4cc(C)c(Cl)c(C)c4)c4ccc(Cl)c(-c5c(C)nn(C)c5C)c43)C2=O)c2c(c1)c(C(=O)O)cn2Cc1ccccn1"
output: 0.45

input: Okay, and "Cc1cc(N2C[C@@H](C)n3c(c(CCCOc4cc(C)c(Cl)c(C)c4)c4ccc(Cl)c(-c5c(C)nn(C)c5C)c43)C2=O)c2c(c1)cc(C(=O)O)n2Cc1cccc(N2CCCCC2)n1" ?
output: 1.3

input: Okay, and "COCCn1cc(N2C[C@@H](C)n3c(c(CCCOc4cc(C)c(Cl)c(C)c4)c4ccc(Cl)c(-c5c(C)nn(C)c5C)c43)C2=O)c2cc(-c3ncn(CC4CN(C(C)=O)C4)n3)ccc21" ?
output: 3.8
